Target or system Carbonic anhydrase 6 (Homo sapiens, UniProt P23280); recorded quantity Ki.
metric name: Ki (nM)

1 = Cc1c(CCO)sc[n+]1C
2 = Cc1c(CCO)sc[n+]1Cc1ccccc1
Prompt: Kindly identify which of 1 and 2 has the larger recorded Ki value. Use the label to indicate which entry you chose.
Completion: 1
